Recorded Ki for the following compounds
Target sequence: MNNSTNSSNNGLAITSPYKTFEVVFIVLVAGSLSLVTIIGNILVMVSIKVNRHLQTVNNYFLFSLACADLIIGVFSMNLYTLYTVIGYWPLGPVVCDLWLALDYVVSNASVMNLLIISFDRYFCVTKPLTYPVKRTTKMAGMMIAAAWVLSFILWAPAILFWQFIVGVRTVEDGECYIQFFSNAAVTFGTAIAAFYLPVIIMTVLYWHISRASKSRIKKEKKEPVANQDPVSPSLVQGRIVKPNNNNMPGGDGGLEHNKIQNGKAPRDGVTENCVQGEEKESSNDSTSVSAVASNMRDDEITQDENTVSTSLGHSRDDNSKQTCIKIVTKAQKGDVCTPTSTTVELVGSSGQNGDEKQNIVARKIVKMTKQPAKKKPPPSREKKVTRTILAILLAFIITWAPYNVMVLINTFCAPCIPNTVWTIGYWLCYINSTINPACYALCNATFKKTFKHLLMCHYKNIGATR

>  <STRUCTURE>
COc1ccc(S(=O)(=O)c2ccc(C3(C4CCN(C5CCN(C(=O)c6cccc(N)c6)CC5)CC4)OCCO3)cc2)cc1

>  <Ki [nM]>
0.78

$$$$
>  <STRUCTURE>
COc1ccc(S(=O)(=O)c2ccc(C3(C4CCN(C5CCN(C(=O)c6ccccc6C)CC5)CC4)OCCO3)cc2)cc1

>  <Ki [nM]>
0.54

$$$$
>  <STRUCTURE>
COc1ccc(S(=O)(=O)c2ccc(C3(C4CCN(C5CCN(C(=O)c6cccc(Cl)c6C)CC5)CC4)OCCO3)cc2)cc1

>  <Ki [nM]>
0.72

$$$$
>  <STRUCTURE>
COc1ccc(S(=O)(=O)c2ccc(C3(C4CCN(C5CCN(C(=O)c6ccccc6OC)CC5)CC4)OCCO3)cc2)cc1

>  <Ki [nM]>
1.2

$$$$
